experiment: Cytotoxicity against human MRC5 cells; format: toxicity, cell-based
Listed molecules paired with reported IC50
Measure: IC50

[[record]]
molecule = "O=C1N[C@@H](Cc2c[nH]c3ccccc23)C(=O)N2C(c3ccc4c(c3)OCO4)c3[nH]c4ccccc4c3C[C@H]12 (stereo not given in full)"
measure = "IC50"
experimental_value = "35 µM"

[[record]]
molecule = "CC(C)(C)OC(=O)CC[C@@H]1NC(=O)[C@H]2Cc3c([nH]c4ccccc34)C(c3ccc4c(c3)OCO4)N2C1=O (stereo not given in full)"
measure = "IC50"
experimental_value = "> 64 µM"

[[record]]
molecule = "NCCCC[C@H]1NC(=O)[C@H]2Cc3c([nH]c4ccccc34)C(c3ccc4c(c3)OCO4)N2C1=O (stereo not given in full)"
measure = "IC50"
experimental_value = "> 64 µM"

[[record]]
molecule = "Cn1c2c(c3ccccc31)C[C@@H]1C(=O)N([C@@H]3CCN(Cc4ccccc4)C3)CC(=O)N1[C@@H]2c1ccc2c(c1)OCO2"
measure = "IC50"
experimental_value = "> 64 µM"

[[record]]
molecule = "O=C1N[C@@H](COCc2ccccc2)C(=O)N2C(c3ccc4c(c3)OCO4)c3[nH]c4ccccc4c3C[C@H]12 (stereo not given in full)"
measure = "IC50"
experimental_value = "> 64 µM"

